TEST DETAILS: yeast display, Sf9 membrane polyspecificity reagent, FACS + sequencing; frameworks hold sequencing errors
MEASUREMENT NAME: polyreactivity (PSR sort gate)

Examples with their reported polyreactivity (PSR sort gate) follow.
{"RESIDUE CODES": "QVQLVESGGGLVQAGGSLRLSCAASGRTFDRYAMGWYRQAPGKERELVAAISRGGSTNYADSVKGRFTISRDNAKNTVYLQMNSLKPEDTAVYYCAARVSFLHLRRAYDYWGQGTQVTVSS", "polyreactivity (PSR sort gate)": "high polyreactivity"}
{"RESIDUE CODES": "QFQLVESRGGLDQAVGSLRLSCAASGFIFAGYVMGLYRQAPGQERELVAGISNSGDNTHYADSVKGRFTISRDNAKNTDYLQMNSLKPEDTAVYYCAAVEQHLAGDDFYSYYYWGQGTQVTLSS", "polyreactivity (PSR sort gate)": "low polyreactivity"}
{"RESIDUE CODES": "QVQLVESGGGLVQAGGSLRLSCSASGFIFGPNAMGWYRQAPGKEMELVAAISWMGSSTYYADSVKGRFTISRDNANNTVYLQMNSLKPEDTAVYYCAADSSERRLLDFDYWGQGTNVTVSS", "polyreactivity (PSR sort gate)": "low polyreactivity"}
{"RESIDUE CODES": "QVQLVESGGGLVQAGGSLRLSCAASGYGYVMGWYRQAPGKERELVAAISRSGGSTYYADSVKGRFTISRDNAKNTVYFQMNSLIPEDTAVYDCAARWPGAYHDYGYWGQVTQVTVSS", "polyreactivity (PSR sort gate)": "high polyreactivity"}

Please look at the following sequence next.
Please report the recorded polyreactivity (PSR sort gate) for "QVQLVESGGGLVQAGGSLRLSCAASGFIFPFYAMGWYRQAPGKEREFVAAITLSSGSTYYADSVKGRFTISRDNAKNTVFLQMNSLKPEDTAVYYCNADYNVYLYYGYDYWGQGTHVTVSS" .
low polyreactivity

* * *

TEST DETAILS: yeast display, Sf9 membrane polyspecificity reagent, FACS + sequencing; frameworks hold sequencing errors
MEASUREMENT NAME: polyreactivity (PSR sort gate)

{"RESIDUE CODES": "QVQLVESGGGLVQAGGSLRLSCAASGRTFVGNAMGWYRQAPGKERELVATITRRGGSTYYADSVKGRFTISRDNAKNTVYLQMNSLKPEDTAVYYCSAGSQPGRKYYYWGQGTQVTVSS", "polyreactivity (PSR sort gate)": "high polyreactivity"}
{"RESIDUE CODES": "QVQFVESGGGLVQAGGSLRLSCAASGSIFSSYAMGWYRQAPGKERELVAVINSGGSTNYADSVKGRFTISRDNAKNTVYLHMNSLKPEDTAVYYCNAYGGTFHNTAAEFDYWGQGTQVTVSS", "polyreactivity (PSR sort gate)": "low polyreactivity"}
{"RESIDUE CODES": "QVQLVESGGGLVQAGGSLRLSCAASGIISIFIVMGGYRQAPGKERELVASITGRGGSTFYADSVKGRFTISRDNAKNTVYLQMNSLKPEDTAVYYCATDTGYTYPVTGLYDYWGQGTQVTVSS", "polyreactivity (PSR sort gate)": "low polyreactivity"}
{"RESIDUE CODES": "QVQLVESGGGVVQAGGSLRLSCAASGRIFERNAMGSYRQSPVKERELVARITSGGGTYYADSVKGRFTISRDNAKNTVYLQMNSLKPEDSAVYYSAVQYLYRKYRRYDYWGLGTQVTVSS", "polyreactivity (PSR sort gate)": "high polyreactivity"}
{"RESIDUE CODES": "QVQLVESGGGLVHAGGSLRLSCAASGYSSSQNAMVWYRQEPGKERELLARITTDGTSTYYADSVKGRFTISRDNAKNTVYLHMNSLKPEDTAVYYCNARYPAYVVRSWYPYAYYYWGQGTQVTVSS", "polyreactivity (PSR sort gate)": "low polyreactivity"}
{"RESIDUE CODES": "QVQLVESGGGLVQAGGSLRLICAASGFISSENAMGWYRQAPGKERELVAAISSGGSTNYADSVKGRFTISRDNAKYTVYLQMYSLKPEDTAVYYCNAEAIQAVYYAYEYWGQGTQVTVSS", "polyreactivity (PSR sort gate)": "low polyreactivity"}

Please report the recorded polyreactivity (PSR sort gate) for "QVQLVESGGGLVQAGGSLRLSCAASGRISVRIYAMGWYRQAPGKERELVAIISRSGGSTYYADSVKGRFTISRDNAKTTVYLQMNSLKPQDTAVYYCNARWSFSYTVWVASYWCLDDYWGQGTQVTVSS" .
high polyreactivity

Then "QVQLVESGGGLVQAGGSLRLSCAASGRTFPGYAMGWYRQAPGKERELVAAITSSGDDTYYADSVKGRFTISRDNAKNTVYLQMYSLKPEDTAVYYCRLFRRSADSSFDYEYWGQGTQVTVSS" ?
low polyreactivity

Then "QVQLVESGGGLVQAGGSLRLSCAASGSIFYYNAMGWYRQAPGKERELVATITSAVSTNYADSVKWRFTISRDNAKNTVYLQMNSLKPEDTAVYYCAADVVYISGYDYWGQGTQVTVSS" ?
low polyreactivity

Then "QVQLVESGGGLVQAGGSLRLSCAASGRIFGKYAMGWYRHAPGKERELVAAIRSRGSTTYYADSVKGRFTISRDNAKNTVYLQMNSLKPEDTAVYYCAKDVGGKPWYPYGYWGQGTQVTVSS" ?
high polyreactivity

Then "QVQLVESGGGLVQAGGSLRLSCAASGSTFPPNAMGWYRQAPGKERELVAAISASGGRTYYADSVKGRFTISRDNAKNTVYLQMNSLKPEDTAVYYCNARGGRYGRGSSDQLDYYWGQGTQVTVSS" ?
high polyreactivity

Then "QVQLVESGGGLVQAGGSLRLSCAASGFTFTTYAMGWYRQAPRQVRELVAAITRRGGSTYYADSVKGRFTISRDNEKNTVYLQMNSLKPEDTAVYYCAAGGGWGLDFWGQGTQVTVSS" ?
high polyreactivity

* * *

TEST DETAILS: yeast display, Sf9 membrane polyspecificity reagent, FACS + sequencing; frameworks hold sequencing errors

{"RESIDUE CODES": "HVQLVESGGGLVQAGGSLRIICAASVRIFYLYAMGWYRRAPGKERELVATINSGGSTKYADSVKGRFTISRDNAKNSVYLQRNSLKPEDTAVYYCNAKRWKDYYPYQSWKYGYWGQGTQVTVSS", "polyreactivity (PSR sort gate)": "high polyreactivity"}
{"RESIDUE CODES": "QVQLVESGGGLVQAGGSLRLSCAASGFIFRQNAMGWYRQAPGKEWELVARITWNGGRTYYADSVKGRFTISRDNAKNTVYLQMHSLKPEDTAVYYCNAVYWGYGKYDYWGQGTQVTVSS", "polyreactivity (PSR sort gate)": "high polyreactivity"}

* * *

TEST DETAILS: yeast display, Sf9 membrane polyspecificity reagent, FACS + sequencing; frameworks hold sequencing errors
MEASUREMENT NAME: polyreactivity (PSR sort gate)

{"RESIDUE CODES": "QVQLVESGGGLVQAGGSLRLSCAASGFIFTLNAMGWYRQAPGKERELVASISSGVSTNYADSVKGRFTISRDNAKNTVYLQMNSLKPEDTAVYYCAARDTGPDGFEGDYWGQGTQVTVSS", "polyreactivity (PSR sort gate)": "low polyreactivity"}
{"RESIDUE CODES": "QVQLVESGGGLVQAGGSLRLSCAASGRTFVSYAMGWSRQAPGKERELVATITGSTGGTYYADSVKGRFTISRDNAKNTVYLQMNSLKPEDTAVYYCNKDYYYNPGNVASGYDYWGQGTQVTVSS", "polyreactivity (PSR sort gate)": "low polyreactivity"}
{"RESIDUE CODES": "QVQLVESGGGLVQAGGSLRLSCAASGSTSPRNAMGWYRQAPGKERELVAAISSGGRTNYADSVKGRFTISRDNAKNTVYLQMNSLKPEDTAVYYCAAEVQSTYWGQGTQVTVSS", "polyreactivity (PSR sort gate)": "low polyreactivity"}
{"RESIDUE CODES": "QVQLVESGGGLVQAGGSLRLSCAASGSTFQSYAMGWYRQAPGKERELVAGITSGDSTNYADSVKGRFTISRDNAKNTVYFQMISLKPEDTAVYYCNAVTQASYYYWGQGTQVTVSS", "polyreactivity (PSR sort gate)": "low polyreactivity"}
{"RESIDUE CODES": "QVQLVESGGGLVQAGGSLRLSCAASGIIFDSYAMGWYRQAPGKERELVAAITSDSGRTYYADSVKGRFTISRDNAKNTVYLQMNSLKPEDTAVYYCAKRWDGPYDYWGHGTQVTVSS", "polyreactivity (PSR sort gate)": "low polyreactivity"}

Please report the recorded polyreactivity (PSR sort gate) for "QVQLVESGGGLVQAGGSLRLSCAASGSTFYSNVMGWYRQAPGKEREFVAGISGSGGSTYYADSVKGRFTISRDNAKNTVYLQMNSLKPEDTAVYYCAKYRYSRYFRYDYWGQCTQVTVSS" .
high polyreactivity

Then "QVQLVESGGGLVQAGGSLRLSCAASGSTFLVYAMGWYRQAPGKERELVAAITQIDGSTYYADSVKGRFTISRDNAKNTVYLQMNSLKPEDTAVYYCAARYFWTYEYDYWGQGTQVTVSS" ?
low polyreactivity

Then "QVQLVESGGGLVQAGGSLRLSCAASGRTLDKYAMGWYRQAPGKERELVAAITSGGSTNYADSVKGRFTISRDNAKNTVYLQMNSLKPEDTAVYYCAKDLQGNPHFSYGIDFDYWGQGTQVTVSS" ?
low polyreactivity

Then "QVQLVESGGGLVQAGGSLRLSCAASGRTFRAYSMGWYRQAPGKERELVAASSRSGGRTYYADSVKGRFTISRDNAKITVFFQINSLKPEDTAVYYCAAETKYNTHDYYYWGQATQVTVSS" ?
high polyreactivity

Then "QVQLVESGGGLVQAGGSLRLSCADSGSIFLIYAMGWYRQAPGKERELVATINRGDNTYYADSVKGRFTISRDNAKITVYLQMYSLKPEDTADGYWGQGTQVTGSS" ?
low polyreactivity

Then "QVQLVESGGGLVQAGGRLRLSCAASVRTFYYYVMGWYRQEPGNERELVAAISSGGSTYYADSVKGRFTISRDNAKNTVYLQMNSLKPEDTAVYYGAATKRYRDSYDYDYWGQGTQVTVSS" ?
high polyreactivity
